Sourced from ChEMBL document CHEMBL1124577

test_target: Gonadotropin-releasing hormone receptor (Rattus norvegicus)
Sequence (P30969 whole entry): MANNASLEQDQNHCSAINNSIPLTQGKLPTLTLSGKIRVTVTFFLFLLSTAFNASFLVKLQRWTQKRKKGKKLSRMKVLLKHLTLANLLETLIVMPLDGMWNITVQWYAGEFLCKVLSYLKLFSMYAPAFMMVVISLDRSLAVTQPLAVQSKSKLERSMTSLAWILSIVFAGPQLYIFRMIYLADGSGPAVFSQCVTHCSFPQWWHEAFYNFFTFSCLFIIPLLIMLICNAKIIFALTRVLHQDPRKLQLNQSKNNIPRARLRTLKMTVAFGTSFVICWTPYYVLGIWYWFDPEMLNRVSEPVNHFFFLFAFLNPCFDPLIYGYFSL
assay_comment: Binding affinity at Leutinizing releasing hormone receptor in rat pituitary using [125I]leuprolide as radioligand
pIC50: −log10 of the molar value.
Please provide measured pIC50 for the entries that follow.

Here are 7 molecules together with their reported answers.
OC[C@H]1CO[C@](Cn2ccnc2)(c2ccc(Cl)cc2Cl)O1	< 4.52
CCC(C)n1ncn(-c2ccc(N3CCN(c4ccc(OC[C@H]5CO[C@](Cn6ccnc6)(c6ccc(Cl)cc6Cl)O5)cc4)CC3)cc2)c1=O (stereo partly drawn)	< 4.52
CC(C)(C)OC(=O)N[C@@H](Cc1c[nH]c2ccccc12)C(=O)N1CCC[C@H]1C(=O)N[C@@H](CC1=CNCN1)C(=O)NC[C@H]1CO[C@](Cn2ccnc2)(c2ccc(Cl)cc2Cl)O1	6.30
Clc1ccc([C@@]2(Cn3ccnc3)OC[C@H](CNCc3c[nH]c4ccccc34)O2)c(Cl)c1	< 4.52
O=C(NC[C@H]1CO[C@](Cn2ccnc2)(c2ccc(Cl)cc2Cl)O1)[C@H](Cc1c[nH]cn1)NC(=O)[C@@H]1CCC(=O)N1C(=O)OCc1ccccc1	5.70
Clc1ccc([C@@]2(Cn3ccnc3)OC[C@H](COc3ccccc3)O2)c(Cl)c1	< 4.52
O=C(NC[C@H]1CO[C@](Cn2ccnc2)(c2ccc(Cl)cc2Cl)O1)C1CCC(=O)N1C(=O)OCc1ccccc1 (stereo partly drawn)	< 4.52

Please examine the following record next.
[ask] Complete the entry with pIC50 for O=C1c2ccccc2C(=O)N1C[C@H]1CO[C@](Cn2ccnc2)(c2ccc(Cl)cc2Cl)O1
[reply] < 4.52
